Target: FR-β (Homo sapiens)
Construct: expressed in transfected cells; host or cells: Chinese Hamster Ovary cells (CHO-β / CHO-FR-β)
Sequence (P14207 17-230): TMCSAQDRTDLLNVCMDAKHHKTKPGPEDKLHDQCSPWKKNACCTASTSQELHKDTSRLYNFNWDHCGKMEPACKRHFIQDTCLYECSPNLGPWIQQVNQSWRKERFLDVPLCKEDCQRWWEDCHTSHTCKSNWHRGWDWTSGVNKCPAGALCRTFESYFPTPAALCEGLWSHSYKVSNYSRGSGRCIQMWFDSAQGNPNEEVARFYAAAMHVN
Experiment: Intact cell competitive binding of [3H]-folic acid to FR-β (CHO-β cells)
Settings: [3H]-folic acid displacement, 10 min at 4° C.
Please respond with reported FR-β binding affinity relative to folic acid for every item in the list.

# return recorded FR-β binding affinity relative to folic acid for entry Nc1nc(N)c2nc(CNc3ccc(C(=O)N[C@@H](CCCNC(=O)c4ccccc4C(=O)O)C(=O)O)cc3)cnc2n1 [PT523]
0.3 % of folic acid

# return recorded FR-β binding affinity relative to folic acid for entry Nc1nc2c(c(=O)[nH]1)CC(CCc1ccc(C(=O)N[C@@H](CCC(=O)O)C(=O)O)cc1)CN2 (stereo partly drawn) [DDATHF, 5,10-dideazatetrahydrofolate]
27 % of folic acid

# return recorded FR-β binding affinity relative to folic acid for entry Nc1nc2c(c(=O)[nH]1)SC(CCc1ccc(C(=O)N[C@@H](CCC(=O)O)C(=O)O)s1)CN2 (stereo partly drawn) [AG2034]
54 % of folic acid

# return recorded FR-β binding affinity relative to folic acid for entry C#CCN(c1ccc(C(=O)N[C@@H](CCC(=O)N[C@H](CCC(=O)O)C(=O)O)C(=O)O)cc1)[C@H]1CCc2cc3nc(CO)[nH]c(=O)c3cc21 [(6S)-BGC 945]
46 % of folic acid

# return recorded FR-β binding affinity relative to folic acid for entry C#CCN(c1ccc(C(=O)N[C@@H](CCC(=O)N[C@H](CCC(=O)O)C(=O)O)C(=O)O)cc1)C1CCc2cc3nc(CO)[nH]c(=O)c3cc21 (mixture of isomers) [BGC 945]
89 % of folic acid

# return recorded FR-β binding affinity relative to folic acid for entry C#CN(Cc1cc2c(=O)[nH]c(N)nc2cc1C)c1ccc(C(=O)N[C@@H](CCC(=O)CN[C@H](CCCC(=O)O)C(=O)O)C(=O)O)c(F)c1 [CB300635]
161 % of folic acid
